- STUDY TARGET: LAR (Homo sapiens, UniProt P10586)
- Construct: pGEX2T-LAR1282–1888; GST (N); made in house; host or cells: E. coli BL21 (DE3)
- Sequence (P10586 1301-1907 limits assumed): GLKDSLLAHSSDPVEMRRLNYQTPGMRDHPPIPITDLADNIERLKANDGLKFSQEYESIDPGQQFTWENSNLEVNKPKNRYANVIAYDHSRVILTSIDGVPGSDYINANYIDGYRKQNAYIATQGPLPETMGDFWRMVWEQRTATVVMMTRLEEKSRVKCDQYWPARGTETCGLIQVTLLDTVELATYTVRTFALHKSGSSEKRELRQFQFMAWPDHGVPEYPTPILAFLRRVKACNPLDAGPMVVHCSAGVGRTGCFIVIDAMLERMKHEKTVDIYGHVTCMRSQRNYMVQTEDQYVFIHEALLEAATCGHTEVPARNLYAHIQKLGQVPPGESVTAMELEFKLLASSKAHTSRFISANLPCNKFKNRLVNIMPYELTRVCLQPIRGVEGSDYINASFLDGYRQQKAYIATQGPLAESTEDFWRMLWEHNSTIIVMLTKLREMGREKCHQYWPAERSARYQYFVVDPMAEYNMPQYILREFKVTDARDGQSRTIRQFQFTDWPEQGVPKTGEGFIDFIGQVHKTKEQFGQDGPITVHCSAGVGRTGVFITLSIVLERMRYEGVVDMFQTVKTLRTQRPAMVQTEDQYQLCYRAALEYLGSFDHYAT
- ASSAY: PTP enzyme inhibition assay (pNPP substrate)
- Format: biochemical
- SETUP CONDITIONS: read-out: IC50 LAR; PTPs 0.3 µM, pNPP 5 mM, 25°C; NI: No inhibition at 100 µM
pIC50: −log10 of the molar value.
REPORTED PROPERTY: pIC50

Exercise: Give its pIC50 value. Item: C=CC(C)(C)c1cc2cc3c(cc2oc1=O)O[C@H](C(C)(C)OC(C)=O)C3 [(+)-Rutamarin]
Key: < 4.00

====

- STUDY TARGET: PTP1B (D48A) (Homo sapiens, UniProt P18031, D48A)
- Construct: pGEX4T-1-PTP1B1–321; GST (N)
- ASSAY: PTP enzyme inhibition assay, D48A mutant
REPORTED PROPERTY: pIC50
Bear in mind: pIC50 is minus log10 of a mol/L concentration; give just that figure.

Exercise: Give its pIC50 value. Item: C=CC(C)(C)c1cc2cc3c(cc2oc1=O)O[C@H](C(C)(C)OC(C)=O)C3 [(+)-Rutamarin]
Key: 4.83

====

- STUDY TARGET: CD45 (Homo sapiens, UniProt P08575)
- Sequence (P08575 610-1306 limits assumed): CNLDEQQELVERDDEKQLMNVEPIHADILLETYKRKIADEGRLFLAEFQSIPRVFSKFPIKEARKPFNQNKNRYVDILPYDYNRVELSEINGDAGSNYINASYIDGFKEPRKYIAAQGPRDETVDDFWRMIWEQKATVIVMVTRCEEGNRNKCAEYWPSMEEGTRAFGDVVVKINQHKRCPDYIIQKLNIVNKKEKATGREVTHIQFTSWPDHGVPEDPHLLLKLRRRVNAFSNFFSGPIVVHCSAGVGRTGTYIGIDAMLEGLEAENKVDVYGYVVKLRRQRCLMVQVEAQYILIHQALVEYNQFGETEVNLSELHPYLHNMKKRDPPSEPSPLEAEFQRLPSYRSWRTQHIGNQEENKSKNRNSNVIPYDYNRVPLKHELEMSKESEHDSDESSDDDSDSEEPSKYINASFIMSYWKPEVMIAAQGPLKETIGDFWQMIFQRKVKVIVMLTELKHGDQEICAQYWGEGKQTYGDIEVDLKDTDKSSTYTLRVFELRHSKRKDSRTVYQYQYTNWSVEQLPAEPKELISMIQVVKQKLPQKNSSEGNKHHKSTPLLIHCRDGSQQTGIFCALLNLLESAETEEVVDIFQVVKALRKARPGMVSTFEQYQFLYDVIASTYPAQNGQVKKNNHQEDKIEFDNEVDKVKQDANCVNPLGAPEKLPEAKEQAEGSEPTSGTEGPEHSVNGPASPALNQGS
pIC50: −log10 of the molar value.
REPORTED PROPERTY: pIC50

Exercise: Give its pIC50 value. Item: C=CC(C)(C)c1cc2cc3c(cc2oc1=O)O[C@H](C(C)(C)OC(C)=O)C3 [(+)-Rutamarin]
Key: < 4.00

====

- STUDY TARGET: PTP1B (Homo sapiens)
- Sequence (P18031 1-321): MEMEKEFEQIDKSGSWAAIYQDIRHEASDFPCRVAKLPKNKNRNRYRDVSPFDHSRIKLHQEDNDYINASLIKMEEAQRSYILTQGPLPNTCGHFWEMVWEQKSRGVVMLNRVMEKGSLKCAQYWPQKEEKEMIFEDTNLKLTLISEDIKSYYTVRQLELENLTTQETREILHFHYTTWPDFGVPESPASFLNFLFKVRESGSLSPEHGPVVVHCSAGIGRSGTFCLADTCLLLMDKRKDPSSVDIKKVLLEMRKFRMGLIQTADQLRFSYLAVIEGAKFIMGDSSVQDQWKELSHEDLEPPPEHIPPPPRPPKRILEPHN
REPORTED PROPERTY: IC50 (µM)
Could you give me the number in µM? Just the number is fine.

Exercise: Give its IC50 value. Item: C=CC(C)(C)c1cc2cc3c(cc2oc1=O)O[C@H](C(C)(C)OC(C)=O)C3 [(+)-Rutamarin]
Key: 6.4

====

- STUDY TARGET: PTPα (Homo sapiens)
- Construct: pGEX2T-PTPα182–803; GST (N); made in house; host or cells: E. coli BL21 (DE3)
- ASSAY: PTP enzyme inhibition assay (pNPP substrate)
- Format: biochemical
- SETUP CONDITIONS: read-out: IC50 PTPα; PTPs 0.3 µM, pNPP 5 mM, 25°C; NI: No inhibition at 100 µM
pIC50: −log10 of the molar value.
REPORTED PROPERTY: pIC50

Exercise: Enter reported pIC50 observed with PTPα (Homo sapiens) for C=CC(C)(C)c1cc2cc3c(cc2oc1=O)O[C@H](C(C)(C)OC(C)=O)C3 [(+)-Rutamarin]
Key: < 4.00
